assayedTarget: UniProtKB Q9H7Z6
Sequence (Q9H7Z6 whole entry): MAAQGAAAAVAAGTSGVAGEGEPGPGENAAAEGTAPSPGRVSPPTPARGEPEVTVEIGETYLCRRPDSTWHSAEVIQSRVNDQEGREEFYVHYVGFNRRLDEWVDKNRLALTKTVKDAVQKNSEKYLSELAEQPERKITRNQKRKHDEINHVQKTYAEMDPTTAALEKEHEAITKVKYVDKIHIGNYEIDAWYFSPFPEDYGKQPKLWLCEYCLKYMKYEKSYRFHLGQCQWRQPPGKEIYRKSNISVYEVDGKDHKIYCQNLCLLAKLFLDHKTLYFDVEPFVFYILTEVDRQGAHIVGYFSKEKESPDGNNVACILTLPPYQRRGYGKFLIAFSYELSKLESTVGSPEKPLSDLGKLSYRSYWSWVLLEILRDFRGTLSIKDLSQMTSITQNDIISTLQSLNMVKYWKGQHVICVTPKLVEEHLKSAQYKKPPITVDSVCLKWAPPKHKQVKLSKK
methodNotes: Inhibition of human His-tagged MOF preincubated for 10 mins followed by biotin-labeled H4K16 substrate addition measured after 30 mins in presence of acetyl-CoA by alphascreen assay
attributeMeasured: pIC50
Value format note: pIC50 is -log10 of concentration (mol/L); just state the number.

As a guide, the following entries are already answered.
1) Cc1ccc(C2C(C(=O)c3cc4ccccc4o3)=C(O)C(=O)N2Cc2ccco2)cc1 (centres undefined) : 4.54
2) CC1CCc2c(sc3nnn(CC(=O)Nc4cccc5ccccc45)c(=O)c23)C1 (centres undefined) : 4.60
3) CCc1nnc(NC(=O)CCSCCC(=O)Nc2nnc(CC)s2)s1 : 4.74

Proceed to the following item.
# input Looking for the measured pIC50 of O=C(Cc1cccc2ccccc12)Nc1ccc2nc(SCC(=O)N3CCCC3)sc2c1 , can you help?
# output 4.85

* * *

assayedTarget: Histone acetyltransferase KAT8 (Homo sapiens)
methodNotes: Inhibition of human His-tagged MOF at 100 uM using histone H4 substrate by radioactive acetylation assay relative to control
Reported inhibition is given for each of the following compounds.

As a guide, the following entries are already answered.
1. CCN(CC)S(=O)(=O)c1ccc(/C=C/c2nc3cc(Cl)ccc3s2)cc1 : 89%
2. Cc1ccc(CNS(=O)(=O)c2ccc(/C=C/c3nc4ccccc4s3)cc2)cc1 : 33%
3. CCCCCCCc1ccc(CCc2cccc(O)c2C(=O)O)cc1 : 100%
4. O=S(=O)(Nc1ccccc1)c1ccc(/C=C/c2nc3ccccc3s2)cc1 : 25%
5. CCN(CC)S(=O)(=O)c1ccc(/C=C/c2nc3cc(C)ccc3s2)cc1 : 14%
6. CCN(CC)S(=O)(=O)c1ccc(/C=C/c2nc3ccccc3s2)cc1Cl : 12%
7. CCN(CC)S(=O)(=O)c1ccc(/C=C/c2nc3ccccc3s2)cc1 : 100%
8. O=S(=O)(NCc1ccccc1)c1ccc(/C=C/c2nc3ccccc3s2)cc1 : 11%

# input Looking for the measured inhibition of CCN(CC)S(=O)(=O)c1ccc(/C=C/c2nc3cc(F)ccc3s2)cc1 , can you help?
# output 84%

# input Looking for the measured inhibition of CCN(CC)S(=O)(=O)c1ccc(/C=C/c2nc3cc(Br)ccc3s2)cc1 , can you help?
# output 82%

Values were extracted from ChEMBL document CHEMBL4270623.
